- System: NCI-H358 cells
- TEST: Inhibitory effect on NCI-H358 cell proliferation
- Type: cell-based
- EXPERIMENTAL SETUP: Homo sapiens; NCI-H358, 72 h incubation, Cell Counting-Lite 2.0
VALUE TYPE: IC50 (nM)
Numbers only; they are read as nM.

- MOLECULE: "CC[C@@]1(O)C(=O)OCc2c1cc1n(c2=O)Cc2c-1nc1cc(F)c(C)c3c1c2[C@@H](NC(N)=O)CC3"
  REPORTED: 287
- MOLECULE: "CC[C@@]1(O)C(=O)OCc2c1cc1n(c2=O)Cc2c-1nc1cc(F)c(Cl)cc1c2CNC(=O)C(O)C(F)(F)F (stereo partly drawn)"
  REPORTED: 12.7
- MOLECULE: "CC[C@@]1(O)C(=O)OCc2c1cc1n(c2=O)Cc2c-1nc1cc(F)c(Cl)cc1c2CNC(=O)C(O)C1CC1 (stereo partly drawn)"
  REPORTED: 53.4

query: For the molecule shown here, `CC[C@@]1(O)C(=O)OCc2c1cc1n(c2=O)Cc2c-1nc1cc(F)c(Cl)cc1c2CN` , give the reported IC50.
result: 25.7

query: For the molecule shown here, `CC[C@@]1(O)C(=O)OCc2c1cc1n(c2=O)Cc2c-1nc1cc(F)c(C)c3c1c2[C@@H](NS(N)(=O)=O)CC3` , give the reported IC50.
result: 268

query: For the molecule shown here, `CC[C@@]1(O)C(=O)OCc2c1cc1n(c2=O)Cc2c-1nc1cc(F)c(Cl)cc1c2CNC(=O)CO` , give the reported IC50.
result: 121
